Type: in vitro ADME, Mice
measurement parameters: Mouse
Description: The kinetics of compound degradation in liver microsomes is assessed in an assay with 1 µmol/l of compound and 0.5 mg/ml liver microsomes in a medium of 100 mM Tris-HCl pH 7.5, 6.5 mM MgCl2 and 1 mM NADPH at 37 °C. The reaction is stopped at multiple time points by adding acetonitrile. After centrifugation, the compound concentration is measured in the supernatants by high-performance liquid chromatography (HPLC) tandem mass spectrometry (MS/MS). […]
*1 amine or outer side, *2 acyl side, *3 side chain or, on linkers, in order; H or OH if unused. Where a SMILES comes first, the peptide text is derived from it. [ ]: non-standard residue; d: D form. X2 = C#CCn1cc(C[C@@H](C(=O)[*:2])N(C)[*:1])c2ccccc21; NMeTrp(1-Me) = CN[C@@H](Cc1cn(C)c2ccccc12)C(=O)O; X1 = C#CCn1cc(C[C@H](N[*:1])C(=O)[*:2])c2ccccc21; X4 = C=CCO[C@H](c1ccccc1)[C@H](N[*:1])C(=O)[*:2]; X7 = C=CCn1cc(C[C@H](N[*:1])C(=O)[*:2])c2ccccc21; NMeLeu(5-OH,4R) = CN[C@@H](C[C@@H](C)CO)C(=O)O; Phe(βR-OMe) = CO[C@H](c1ccccc1)[C@H](N)C(=O)O; Trp(1-Me) = Cn1cc(C[C@H](N)C(=O)O)c2ccccc21; NMeL = CN[C@@H](CC(C)C)C(=O)O; Pra = C#CC[C@H](N)C(=O)O
measure: Microsomal Stability Mouse QH

>>> measured_result("CO[C@H](c1ccccc1)[C@@H]1NC(=O)[C@H](C)NC(=O)[C@H](C[C@@H](C)CO)N(C)C(=O)[C@H](Cc2cn(Cc3cn(CCOCCn4cc(Cn5cc(C[C@@H]6NC(=O)[C@H](C(C)C)NC(=O)[C@H](CC(C)C)N(C)C(=O)[C@H](C(C)C)NC(=O)[C@H]([C@H](OC)c7ccccc7)NC(=O)[C@H](C)NC(=O)[C@H](C[C@@H](C)CO)N(C)C6=O)c6ccccc65)nn4)nn3)c3ccccc23)NC(=O)[C@H](C(C)C)NC(=O)[C@H](CC(C)C)N(C)C(=O)[C@H](C(C)C)NC1=O")
"42.900%"
>>> measured_result("C#CCn1cc(C[C@@H]2NC(=O)[C@H](C(C)C)NC(=O)[C@H](CC(C)C)N(C)C(=O)[C@H](C(C)C)NC(=O)[C@H]([C@H](OC)c3ccccc3)NC(=O)[C@H](C)NC(=O)[C@H](C[C@@H](C)CO)N(C)C2=O)c2ccccc21 [Compound 5] (cyclo(A[Phe(βR-OMe)]V[NMeL]V[X1][NMeLeu(5-OH,4R)]))")
">88.400%"
>>> measured_result("COC(c1ccccc1)C1NC(=O)C(C)NC(=O)C(CC(C)CO)N(C)C(=O)C(Cc2cn(CC=CCn3cc(CC4NC(=O)C(C(C)C)NC(=O)C(CC(C)C)N(C)C(=O)C(C(C)C)NC(=O)C(C(OC)c5ccccc5)NC(=O)C(C)NC(=O)C(CC(C)CO)N(C)C4=O)c4ccccc43)c3ccccc23)NC(=O)C(C(C)C)NC(=O)C(CC(C)C)N(C)C(=O)C(C(C)C)NC1=O (centres unmarked)")
"<24.200%"
>>> measured_result("C#CCn1cc(C[C@H]2C(=O)N(C)[C@@H](C[C@@H](C)CO)C(=O)N[C@@H](C)C(=O)N[C@@H]([C@H](OC)c3ccccc3)C(=O)N[C@@H](C(C)C)C(=O)N(C)[C@@H](CC(C)C)C(=O)N[C@@H](C(C)C)C(=O)N2C)c2ccccc21 [Compound 26] (cyclo(A[Phe(βR-OMe)]V[NMeL]V[X2][NMeLeu(5-OH,4R)]))")
">88.400%"
>>> measured_result("C=CCO[C@H](c1ccccc1)[C@@H]1NC(=O)[C@H](C)NC(=O)[C@H](C[C@@H](C)CO)N(C)C(=O)[C@H](Cc2cn(C)c3ccccc23)NC(=O)[C@H](C(C)C)NC(=O)[C@H](CC(C)C)N(C)C(=O)[C@H](C(C)C)NC1=O [Compound 14] (cyclo(A[X4]V[NMeL]V[Trp(1-Me)][NMeLeu(5-OH,4R)]))")
">88.4 >88.4%"
>>> measured_result("CO[C@H](c1ccccc1)[C@@H]1NC(=O)[C@H](C)NC(=O)[C@H](C[C@@H](C)CO)N(C)C(=O)[C@H](Cc2cn(C)c3ccccc23)NC(=O)[C@H](CCC(=O)N(C)C)NC(=O)[C@H](CC(C)C)N(C)C(=O)[C@H](C(C)C)NC1=O [SI-74] (cyclo(A[Phe(βR-OMe)]V[NMeL]E(NMe2)[Trp(1-Me)][NMeLeu(5-OH,4R)]))")
"83.700%"
>>> measured_result("CO[C@H](c1ccccc1)[C@@H]1NC(=O)[C@H](C)NC(=O)[C@H](C[C@@H](C)CO)N(C)C(=O)[C@H](Cc2cn(Cc3cn(CCOCCOCCOCCOCCn4cc(Cn5cc(C[C@H]6C(=O)N(C)[C@@H](C[C@@H](C)CO)C(=O)N[C@@H](C)C(=O)N[C@@H]([C@H](OC)c7ccccc7)C(=O)N[C@@H](C(C)C)C(=O)N(C)[C@@H](CC(C)C)C(=O)N[C@@H](C(C)C)C(=O)N6C)c6ccccc65)nn4)nn3)c3ccccc23)N(C)C(=O)[C@H](C(C)C)NC(=O)[C@H](CC(C)C)N(C)C(=O)[C@H](C(C)C)NC1=O")
"77.100%"
>>> measured_result("C=CCn1cc(C[C@@H]2NC(=O)[C@H](C(C)C)NC(=O)[C@H](CC(C)C)N(C)C(=O)[C@H](C(C)C)NC(=O)[C@H]([C@H](OC)c3ccccc3)NC(=O)[C@H](C)NC(=O)[C@H](C[C@@H](C)CO)N(C)C2=O)c2ccccc21 [Compound 13] (cyclo(A[Phe(βR-OMe)]V[NMeL]V[X7][NMeLeu(5-OH,4R)]))")
">88.400%"
>>> measured_result("C#CC[C@@H]1NC(=O)[C@H](CC(C)C)N(C)C(=O)[C@H](C(C)C)NC(=O)[C@H]([C@H](OC)c2ccccc2)NC(=O)[C@H](C)NC(=O)[C@H](C[C@@H](C)CO)N(C)C(=O)[C@H](Cc2cn(C)c3ccccc23)N(C)C1=O [Compound 20] (cyclo(A[Phe(βR-OMe)]V[NMeL][Pra][NMeTrp(1-Me)][NMeLeu(5-OH,4R)]))")
">88.400%"
>>> measured_result("C#CC[C@@H]1NC(=O)[C@H](CC(C)C)N(C)C(=O)[C@H](C(C)C)NC(=O)[C@H]([C@H](OC)c2ccccc2)NC(=O)[C@H](C)NC(=O)[C@H](C[C@@H](C)CO)N(C)C(=O)[C@H](Cc2cn(C)c3ccccc23)NC1=O [Compound 10] (cyclo(A[Phe(βR-OMe)]V[NMeL][Pra][Trp(1-Me)][NMeLeu(5-OH,4R)]))")
">88.400%"
>>> measured_result("C#CCn1cc(C[C@@H]2NC(=O)[C@H](C(C)C)NC(=O)[C@H](CC(C)C)N(C)C(=O)[C@H](C(C)C)NC(=O)[C@H](Cc3ccccc3)NC(=O)[C@H](C)NC(=O)[C@H](C[C@@H](C)CO)N(C)C2=O)c2ccccc21 [SI-72] (cyclo(AFV[NMeL]V[X1][NMeLeu(5-OH,4R)]))")
">88.400%"
